Data origin: patent US4960755A

Test: Solubility in phosphate-buffered saline solutions, PBS(-) and PBS(+)
Assay type: physicochemical
Settings: pbs(-); read-out: Solubility
measured.endpoint: solubility

- molecule.smiles: "COc1cc(O)c2c(c1)C(=O)c1c(cc3c(c1O)-c1c(cc(C)c(C(=O)N[C@H](C)C(=O)O)c1O)[C@H](O[C@@H]1O[C@H](C)[C@H]([N+](C)(C)C)[C@H](O[C@@H]4OC[C@@H](O)[C@H](O)[C@H]4O)[C@H]1O)[C@H]3O)C2=O"
  readout.value: "> 2700 µg/mL"

Can you share its solubility? I mean this molecule: "CN[C@@H]1[C@H](O[C@@H]2OC[C@@H](O)[C@H](O)[C@H]2O)[C@@H](O)[C@H](O[C@H]2c3cc(C)c(C(=O)N[C@H](C)C(=O)O)c(O)c3-c3c(cc4c(c3O)C(=O)c3cc(OC)cc(O)c3C4=O)[C@@H]2O)O[C@@H]1C"
16 to 18 µg/mL

====

Quick reference: solubility of the listed items.
Experiment: Solubility in phosphate-buffered saline solutions, PBS(-) and PBS(+)
Assay type: physicochemical
Conditions: pbs(+) with mgcl2; PBS(+), containing additionally MgCl2 and CaCl2; read-out: Solubility
Procedure: The solubility of the various antibiotics was determined in phosphate-buffered saline (PBS) solutions and the data obtained are shown below. PBS(-) refers to a solution containing for each liter 0.2 g KCl, 0.2 g KH2 PO4, 8 g NaCl, and 1.15 g Na2 HPO4; PBS(+) contains additionally 100 mg MgCl2.6H2 O and 100 mg CaCl2.
Write the value in µg/mL as a bare number.

- molecule.smiles: "CCCN(C)[C@@H]1[C@H](O[C@@H]2OC[C@@H](O)[C@H](O)[C@H]2O)[C@@H](O)[C@H](O[C@H]2c3cc(C)c(C(=O)N[C@H](C)C(=O)O)c(O)c3-c3c(cc4c(c3O)C(=O)c3cc(OC)cc(O)c3C4=O)[C@@H]2O)O[C@@H]1C"
  readout.value: 32

Switching to the query record.
For the compound shown here, "COc1cc(O)c2c(c1)C(=O)c1c(cc3c(c1O)-c1c(cc(C)c(C(=O)N[C@H](C)C(=O)O)c1O)[C@H](O[C@@H]1O[C@H](C)[C@H](N(C)C)[C@H](O[C@@H]4OC[C@@H](O)[C@H](O)[C@H]4O)[C@H]1O)[C@H]3O)C2=O" , give the reported solubility.
3
